ASSAY SUMMARY: endothelial E-selectin expression blockers – imaging, HUVEC, immunofluorescence, MLSMR starter and 10KST1 sets, primary screen (AID 487);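 also: 100% = median nuclei count of all wells on the same plate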
EXPERIMENTAL CONTEXT: HUVEC TNFalpha-induced E-selectin immunofluorescence imaging, at 2 µM; measured here: cell number, toxicity
nuclei count values for the molecules below.
Please answer in the form of a number followed by its unit of measurement.

For orientation, consider the following solved cases.
CCCNC(=O)N1CCN(S(=O)(=O)c2ccc(C)c(C)c2)CC1 :: 103%
CCn1c(SCC(N)=O)nnc1-c1ccc(S(=O)(=O)N2CCN(C)CC2)cc1 :: 129%
CSC1=C(C#N)C(c2ccc(C)cc2)C2=C(CCCC2=O)N1 (stereo not drawn) :: 109%

Report nuclei count for COc1cccc(C(=O)Nc2cc(NC(=O)c3ccco3)ccc2OC)c1 please. 98.6%

Now give it for COc1ccc(CC(=O)N2CCOCC2)cc1OC too. 111%

Now give it for O=C(NCCCN1CCCC1=O)C1CCN(S(=O)(=O)N2CCOCC2)CC1 too. 81.9%

Now give it for Cc1ccc2nc(/C(C#N)=N/O)[nH]c2c1 too. 119%

Now give it for CSc1ccccc1NC(=O)c1noc2c1CCC2 too. 120%
